Numbers sourced from the supplement of paper PMC12764529.

- experiment: folding stability dG unfold (combined trypsin and chymotrypsin); higher = more stable
Item-by-item account of folding stability dG unfold
// note: answer is a bare numeric in kcal/mol

The cases that follow already have their folding stability dG unfold on record.
record.sequence	folding stability dG unfold, kcal/mol
SAGQWVKFTLPIYKMKYEKDKDGKPEIKEMKPIPKFDIEARVDEDGNVRIRFGGNEREFPPGESLEDLISAG [r14_909_TrROS]	0.478
SAGGSAGGSAGMVVETEVLETTPPGRTVRTRTTTREKTPDNAPVTTESESVTEVPSPPLESAGGSAGGSAGG [r11_689_JUSTAS]	0.273

Task: Retrieve folding stability dG unfold measured for SAGGSAGGSELPVESIETETYEDPSTGVKTVREKYPGGYVVTKTLYVPPDGPPIELPVEVRPESAGGSAGGS [r12_111_JUSTAS] and print it.
Result: 0.425

Task: Retrieve folding stability dG unfold measured for SAGGSAGGSAGMKELEITIIDKKTGKPLKVKVTLVEVDGKLYLVIEVYKNGKPLETYVLPSAGGSAGGSAGG [r11_631_TrROS_Hall] and print it.
Result: 3
